# protocol.text: Metabolic stability in human plasma assessed as compound remaining measured at 2 hrs
# Format: ADME, cell-free
# test.context: read-out: Stability
Flag rule - remaining at 2 h less than 80% flags TRUE; the remaining entries get FALSE.

Solved cases below.
[[record]]
molecule_smiles = "CC(=O)N[C@H]1Cc2cn(nn2)CCCC[C@H](C(=O)N[C@@H](CCCNC(=N)N)C(=O)c2nc3ccccc3s2)NC(=O)[C@H](CC(C)C)NC1=O"
assigned_category = "FALSE"

[[record]]
molecule_smiles = "CC(=O)N[C@H]1Cc2ccc(cc2)OC/C=C\\CNC(=O)CC[C@@H](C(=O)N[C@@H](CCCNC(=N)N)C(=O)c2nc3ccccc3s2)NC(=O)[C@H](CC(C)C)NC1=O"
assigned_category = "TRUE"

[[record]]
molecule_smiles = "CC(=O)N[C@H]1Cc2ccc(cc2)OCCCC[C@@H](C(=O)N[C@@H](CCCNC(=N)N)C(=O)c2nc3ccccc3s2)NC(=O)[C@@H](Cc2c[nH]c3ccccc23)NC1=O"
assigned_category = "TRUE"


Switching to the query record.
Exercise: # strict comparison: is reported remaining at 2 h < 80%? input = CC(=O)N[C@H]1Cc2ccc(cc2)OCCCC[C@@H](C(=O)N[C@@H](CCCNC(=N)N)C(=O)c2nc3ccccc3s2)NC(=O)[C@H](Cc2ccccc2)NC1=O
Key: TRUE
